// data source = patent US9085607B2

Experimental Protocol: Solubility in screen solvents derived from loading in solvent and dissolution
Format: physicochemical
Measurement Context: Pentane, organic solvent or mixture, thermodynamic from solid
Measured Property: solubility

The compound identified as COc1ccc2c(O[C@@H]3C[C@H]4C(=O)N[C@]5(C(=O)NS(=O)(=O)C6CC6)C[C@H]5/C=C\CCCCC[C@H](CC(=O)N5CCCC(F)(F)C5)C(=O)N4C3)cc(-c3nc(C(C)C)cs3)nc2c1C [ACH-0142684] registered its solubility at < 50 mg/mL

* * *

Experimental Protocol: Solubility in screen solvents derived from loading in solvent and dissolution
Format: physicochemical
Measurement Context: Methanol: 10 vol % Water, organic solvent or mixture, thermodynamic from solid
Measured Property: solubility

The molecule identified as COc1ccc2c(O[C@@H]3C[C@H]4C(=O)N[C@]5(C(=O)NS(=O)(=O)C6CC6)C[C@H]5/C=C\CCCCC[C@H](CC(=O)N5CCCC(F)(F)C5)C(=O)N4C3)cc(-c3nc(C(C)C)cs3)nc2c1C [ACH-0142684] registered its solubility at > 85 mg/mL
